Target: norepinephrine (NE) transport (Rattus norvegicus, UniProt Q63380)
Construct: synaptosomal preparations were made from either whole brain (5-HT), striatum (DA) or hypothalamus (NE); from tissue; host or cells: rat hypothalamus synaptosomes
Sequence (Q63380 1-617): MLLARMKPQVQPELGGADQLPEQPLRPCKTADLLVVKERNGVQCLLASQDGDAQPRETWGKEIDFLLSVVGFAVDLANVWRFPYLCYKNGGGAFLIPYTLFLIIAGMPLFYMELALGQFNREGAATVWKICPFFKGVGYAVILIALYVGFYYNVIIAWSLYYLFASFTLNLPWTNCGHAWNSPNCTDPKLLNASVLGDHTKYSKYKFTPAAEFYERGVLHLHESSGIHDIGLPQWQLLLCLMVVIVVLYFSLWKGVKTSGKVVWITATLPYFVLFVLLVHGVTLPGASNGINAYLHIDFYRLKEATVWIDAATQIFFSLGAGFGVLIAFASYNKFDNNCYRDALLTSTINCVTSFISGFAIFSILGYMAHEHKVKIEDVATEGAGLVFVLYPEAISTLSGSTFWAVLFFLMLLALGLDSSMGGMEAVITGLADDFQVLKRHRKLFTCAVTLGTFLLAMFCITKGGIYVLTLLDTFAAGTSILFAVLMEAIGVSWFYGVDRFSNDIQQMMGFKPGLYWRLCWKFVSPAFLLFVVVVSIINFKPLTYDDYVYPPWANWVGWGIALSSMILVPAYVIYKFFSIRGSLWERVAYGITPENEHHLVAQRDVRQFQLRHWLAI
Assay: Inhibition of [3H]NE uptake in rat hypothalamus synaptosomes
Assay type: biochemical
Label Criterion met when IC50 is strictly below 300 nM; at or above that, label Criterion not met.

Please determine if CNC1CCC2(c3ccc(C)cc3)CC12 (centres unmarked) is below 300 nM in terms of IC50.
Criterion not met

I'd appreciate it if you could check whether Cc1ccc(C23CC2CCC3N(C)C)cc1 (centres unmarked) has IC50 smaller than 300 nM.
Criterion not met

Please determine if CNC1CCC2(c3ccc(Cl)c(Cl)c3)CC12 (centres unmarked) is below 300 nM in terms of IC50.
Criterion not met

Consider CN(C)C1CCC2CC21c1ccc(Cl)c(Cl)c1 (centres unmarked) . Does its IC50 lie strictly below 300 nM?
Criterion met

Does CNC1CCC2CC21c1ccc(Cl)c(Cl)c1 (centres unmarked) have IC50 strictly under 300 nM?
Criterion met

###

Target: serotonin (5-HT) transport (Rattus norvegicus, UniProt P31652)
Sequence (P31652 whole entry): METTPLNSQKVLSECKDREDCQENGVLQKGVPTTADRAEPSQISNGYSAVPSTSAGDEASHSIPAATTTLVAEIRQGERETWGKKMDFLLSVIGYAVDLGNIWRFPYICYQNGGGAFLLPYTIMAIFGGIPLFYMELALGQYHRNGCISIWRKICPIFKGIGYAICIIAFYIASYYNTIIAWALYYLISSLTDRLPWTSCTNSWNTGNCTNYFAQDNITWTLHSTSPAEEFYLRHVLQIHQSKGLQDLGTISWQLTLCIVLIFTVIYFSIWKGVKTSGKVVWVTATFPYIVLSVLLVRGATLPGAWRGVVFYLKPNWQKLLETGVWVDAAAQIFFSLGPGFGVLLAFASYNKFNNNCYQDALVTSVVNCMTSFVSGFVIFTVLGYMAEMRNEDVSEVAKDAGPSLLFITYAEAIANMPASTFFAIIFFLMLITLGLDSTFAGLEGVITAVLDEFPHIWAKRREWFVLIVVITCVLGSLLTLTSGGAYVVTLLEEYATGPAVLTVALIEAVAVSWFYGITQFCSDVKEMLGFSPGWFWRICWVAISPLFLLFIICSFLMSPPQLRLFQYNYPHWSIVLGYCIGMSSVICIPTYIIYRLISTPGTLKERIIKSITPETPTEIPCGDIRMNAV
Assay: Inhibition of [3H]5-HT uptake in rat whole brain synaptosomes
Format: biochemical
READOUT LABEL: IC50 (nM)
Write the value in nM as a bare number.

Please give the measured IC50 for this compound: CN(C)C1CCC2CC21c1ccc(Cl)c(Cl)c1 (stereo not shown)
1240

Entry under review: CNC1CCC2(c3ccc(C)cc3)CC12 (stereo not shown) . Reported IC50?
1190

IC50 lookup needed for CNC1CCC2(c3ccc(Cl)c(Cl)c3)CC12 (stereo not shown) , thanks.
75

###

Biological target: norepinephrine (NE) transport (Rattus norvegicus, UniProt Q63380)
Construct: synaptosomal preparations were made from either whole brain (5-HT), striatum (DA) or hypothalamus (NE); from tissue; host or cells: rat hypothalamus synaptosomes
Experiment: Inhibition of [3H]NE uptake in rat hypothalamus synaptosomes
Format: biochemical
Details: read-out: Uptake Inhibition % at 500 nM NE
READOUT LABEL: inhibition at 0.5 µM (%)
The reply should contain only the number, in %.

Query inhibition at 0.5 µM on norepinephrine (NE) transport (Rattus norvegicus, UniProt Q63380) for CNC1CCC2CC21c1ccc(Cl)c(Cl)c1 (stereo not drawn)
94

GET /values?readout=inhibition at 0.5 µM&system=norepinephrine (NE) transport (Rattus norvegicus, UniProt Q63380)&item= NC1CCC2CC12c1ccc(Cl)c(Cl)c1 (stereo not drawn)
34

Form entry - test system: norepinephrine (NE) transport (Rattus norvegicus, UniProt Q63380); read-out: inhibition at 0.5 µM; compound: CN(C)C1CCC2(c3cccc4ccccc34)CC12 (stereo not drawn)
25

Value wanted: inhibition at 0.5 µM (norepinephrine (NE) transport (Rattus norvegicus, UniProt Q63380)) of entry CNC1CC2CC2(c2ccc(C)cc2)C1 (stereo not drawn)
73

Return inhibition at 0.5 µM measured with norepinephrine (NE) transport (Rattus norvegicus, UniProt Q63380) given this compound: CN(C)C1CCC2CC21c1ccc(Cl)c(Cl)c1 (stereo not drawn)
96

Tell me reported inhibition at 0.5 µM for CNC1CCC2(c3cccc4ccccc34)CC12 (stereo not drawn) , tested with norepinephrine (NE) transport (Rattus norvegicus, UniProt Q63380).
49

# query: inhibition at 0.5 µM | item CNC1CCC2(c3ccc4ccccc4c3)CC12 (stereo not drawn) | system: norepinephrine (NE) transport (Rattus norvegicus, UniProt Q63380)
47

Request - read-out inhibition at 0.5 µM | tested on norepinephrine (NE) transport (Rattus norvegicus, UniProt Q63380) | compound CN(C)C1CCC2(c3ccc4ccccc4c3)CC12 (stereo not drawn)
26

Field: inhibition at 0.5 µM (norepinephrine (NE) transport (Rattus norvegicus, UniProt Q63380)). Entry: CNC1CCC2(c3ccc(C)cc3)CC12 (stereo not drawn)
89
